# System: mouse endothelial cells, lung
# METHOD NOTES: MTT cytotoxicity assay, lung endothelial cells
# Type: cell-based
# CONDITION DESCRIPTION: Endothelial cell
MEASUREMENT TYPE: pIC50
In textbook form, pIC50 equals minus log to base ten of the concentration in mol/L.

[in] Requested field: pIC50. Item: COc1ccc(C(=O)c2cc([N+](=O)O)ccc2N2CCCCC2)cc1 (racemic) [DL-001]
[out] 7.35
